Molecular target: sGC α1/β1 heterodimer (Homo sapiens, UniProt Q02108+Q02153)
Construct: expressed in transfected cells; host or cells: CHO-K1 (clone #7, CHO-K1/sGC)
Sequence (Q02108 1-690): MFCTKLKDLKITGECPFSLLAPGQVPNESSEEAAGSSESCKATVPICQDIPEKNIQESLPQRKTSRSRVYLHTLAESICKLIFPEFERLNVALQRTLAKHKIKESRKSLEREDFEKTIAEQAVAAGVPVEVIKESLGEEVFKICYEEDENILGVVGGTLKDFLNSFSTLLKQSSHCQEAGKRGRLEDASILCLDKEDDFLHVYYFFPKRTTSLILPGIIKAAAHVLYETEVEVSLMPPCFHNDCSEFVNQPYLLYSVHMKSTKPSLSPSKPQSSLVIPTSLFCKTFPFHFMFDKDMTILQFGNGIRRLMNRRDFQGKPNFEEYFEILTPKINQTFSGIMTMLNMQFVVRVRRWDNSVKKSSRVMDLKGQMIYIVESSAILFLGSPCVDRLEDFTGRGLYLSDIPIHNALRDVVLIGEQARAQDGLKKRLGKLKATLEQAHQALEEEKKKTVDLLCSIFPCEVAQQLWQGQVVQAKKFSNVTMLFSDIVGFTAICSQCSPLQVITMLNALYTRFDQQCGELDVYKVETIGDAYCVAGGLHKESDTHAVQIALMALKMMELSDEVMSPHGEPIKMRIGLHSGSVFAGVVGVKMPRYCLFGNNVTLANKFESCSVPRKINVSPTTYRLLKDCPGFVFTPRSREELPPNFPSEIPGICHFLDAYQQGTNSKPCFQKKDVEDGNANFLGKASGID
Sequence (Q02153 1-619): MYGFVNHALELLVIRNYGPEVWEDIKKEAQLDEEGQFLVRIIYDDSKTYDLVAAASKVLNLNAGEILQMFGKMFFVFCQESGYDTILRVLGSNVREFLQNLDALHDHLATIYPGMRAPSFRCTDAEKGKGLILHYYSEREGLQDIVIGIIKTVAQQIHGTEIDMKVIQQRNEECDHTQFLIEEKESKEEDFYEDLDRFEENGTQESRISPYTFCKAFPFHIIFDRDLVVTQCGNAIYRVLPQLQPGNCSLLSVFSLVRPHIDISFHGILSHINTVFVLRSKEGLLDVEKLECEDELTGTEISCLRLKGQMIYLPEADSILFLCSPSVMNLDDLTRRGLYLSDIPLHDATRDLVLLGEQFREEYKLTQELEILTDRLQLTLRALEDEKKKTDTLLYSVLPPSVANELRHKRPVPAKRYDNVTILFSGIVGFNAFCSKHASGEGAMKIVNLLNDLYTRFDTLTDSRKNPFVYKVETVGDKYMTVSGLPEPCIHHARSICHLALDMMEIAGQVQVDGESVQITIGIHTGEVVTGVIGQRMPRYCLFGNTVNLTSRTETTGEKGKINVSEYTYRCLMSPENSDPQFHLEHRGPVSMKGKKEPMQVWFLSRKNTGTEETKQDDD
Test: Cell-Based sGC Functional Assay (CASA Assay), cGMP by HTRF in CHO-K1/sGC cells
Details: cGMP production, 1 hr at 37° C., 4P fit, presence or absence of 1 μM DETA-NO not given, read-out: IP (nM) (inflection point)
measuredEndpoint: log10 EC50 (log10 of the value in nM)
Heads up, the numbers here are log10 of EC50 in nM units.

I have this compound here, O=C1Nc2nc(-c3cn4ccnc4c(CCCC(F)(F)F)n3)nc(O)c2C1(c1ccc(Cl)cn1)C1CC1 (centres unmarked) [Example 10A] , and I need its recorded log10 EC50.
2.82

# repeat for CC1(c2ccc(F)cc2)C(=O)Nc2nc(-c3cn4ccnc4c(CCC(F)(F)C(F)(F)F)n3)nc(O)c21 (centres unmarked)
2.64

Now the same for CC1(c2ccc(Cl)cc2)C(=O)Nc2nc(-c3cn4ccnc4cn3)nc(-c3ccccc3)c21 (centres unmarked) [Example 84A]
2.02

And what about the compound CCCCc1nc(-c2nc3c(c(C4CC4)n2)C(C)(c2ccc(F)cn2)C(=O)N3)cn2ccnc12 (centres unmarked) [Example 72B] ?
1.91

Same question for O=C1Nc2nc(-c3cn4ccnc4c(CCC(F)(F)C(F)(F)F)n3)ncc2C1(c1ccc(F)cc1)C1CC1 (centres unmarked) [Example 11B] please.
1.82

Entry to check: CC1(c2ccc(Cl)cn2)C(=O)Nc2nc(-c3cn4ccnc4c(CC4CCC4)n3)ncc21 (centres unmarked) [Example 58A]
1.91

One more compound: CC1(c2ccc(F)cc2)C(=O)Nc2nc(-c3cn4ccnc4c(CCC(F)(F)C(F)(F)F)n3)nc(C3CC3)c21 (centres unmarked) [Example 75A]
1.86

Request: Cc1cn2cc(-c3ncc4c(n3)NC(=O)C4(C)c3ccc(F)cn3)nc(CCCC(F)(F)F)c2n1 (centres unmarked) [Example 90B]
2.77

Try this compound next: CC1(c2ccc(F)cc2)C(=O)Nc2nc(-c3cn4ccnc4c(CCC(F)(F)C(F)(F)F)n3)nc(C(N)=O)c21 (centres unmarked) [Example 86A]
1.76

Next entry: CC1(c2ccc(Cl)cn2)C(=O)Nc2nc(-c3cn4c(N)cnc4c(CCC(F)(F)C(F)(F)F)n3)ncc21 (centres unmarked) [Example 87A]
2.50

Now try CC1(c2ccc(F)c(F)c2)C(=O)Nc2nc(-c3cn4ccnc4c(CCC(F)(F)F)n3)ncc21 (centres unmarked) [Example 37B] .
2.90

And then CCCCc1nc(-c2nc(O)c3c(n2)NC(=O)C3(c2ccc(Cl)cc2F)C2CC2)cn2ccnc12 (centres unmarked) [Example 33A] , what is it?
2.03

Would you kindly repeat that for COc1nc(-c2cn3ccnc3c(CCC(F)(F)C(F)(F)F)n2)nc2c1C(C)(c1ccc(F)cc1)C(=O)N2 (centres unmarked) [Example 89A] ?
2.78

Same question for CC1(c2ccc(F)cn2)C(=O)Nc2nc(-c3cn4ccnc4c(CC4CCC4)n3)nc(O)c21 (centres unmarked) [Example 31B] please.
2.66

Would you kindly repeat that for CCCCc1nc(-c2ncc3c(n2)NC(=O)C3(C)c2ccc(F)cn2)cn2ccnc12 (centres unmarked) [Example 82B] ?
1.57

Entry to check: O=C1Nc2nc(-c3cn4ccnc4c(Cc4ccc(F)cc4)n3)ncc2C1(C(=O)NC1CC1)C1CC1 (single isomer, unassigned) [Example 68A]
2.40

Item: CC1(c2ccc(Cl)c(F)c2)C(=O)Nc2nc(-c3cn4ccnc4c(CCC(F)(F)F)n3)nc(O)c21 (centres unmarked) [Example 13B]
2.26

Now the same for CC1(c2ccc(Cl)cn2)C(=O)Nc2nc(-c3cn4ccnc4c(CCC(F)(F)C(F)(F)F)n3)ncc21 (centres unmarked) [Example 36A]
1.73

Now the compound CCCCc1nc(-c2nc(O)c3c(n2)NC(=O)C3(c2ccc(Cl)c(F)c2)C2CC2)cn2ccnc12 (centres unmarked) [Example 21A]
2.06

Moving on to the next compound: CCCCc1nc(-c2nc(O)c3c(n2)NC(=O)C3(c2ccc(Cl)cn2)C2CC2)cn2ccnc12 (centres unmarked) [Example 25A]
2.38

====

Target: sGC α1/β1 heterodimer (Homo sapiens, UniProt Q02108+Q02153)
Construct: expressed in transfected cells; host or cells: CHO-K1 (clone #7, CHO-K1/sGC)
Sequence (Q02108 1-690): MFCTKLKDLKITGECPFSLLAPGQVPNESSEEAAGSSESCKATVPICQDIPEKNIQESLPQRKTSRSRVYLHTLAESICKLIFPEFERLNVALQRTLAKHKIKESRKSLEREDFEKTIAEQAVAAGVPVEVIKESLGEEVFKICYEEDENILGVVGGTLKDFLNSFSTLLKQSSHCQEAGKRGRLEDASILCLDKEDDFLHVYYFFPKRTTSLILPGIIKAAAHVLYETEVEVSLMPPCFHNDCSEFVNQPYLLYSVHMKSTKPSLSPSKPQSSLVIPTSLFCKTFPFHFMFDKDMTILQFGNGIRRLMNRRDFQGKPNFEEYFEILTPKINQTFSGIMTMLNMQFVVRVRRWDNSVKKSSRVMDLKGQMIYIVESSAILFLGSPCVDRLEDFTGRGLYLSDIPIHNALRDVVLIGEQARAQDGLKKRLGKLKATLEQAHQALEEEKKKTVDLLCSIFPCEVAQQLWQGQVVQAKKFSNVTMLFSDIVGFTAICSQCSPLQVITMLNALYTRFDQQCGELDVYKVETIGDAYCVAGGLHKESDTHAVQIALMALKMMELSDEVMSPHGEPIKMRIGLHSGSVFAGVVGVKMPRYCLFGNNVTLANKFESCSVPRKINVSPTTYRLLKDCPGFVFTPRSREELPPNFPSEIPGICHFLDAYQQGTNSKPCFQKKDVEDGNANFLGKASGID
Sequence (Q02153 1-619): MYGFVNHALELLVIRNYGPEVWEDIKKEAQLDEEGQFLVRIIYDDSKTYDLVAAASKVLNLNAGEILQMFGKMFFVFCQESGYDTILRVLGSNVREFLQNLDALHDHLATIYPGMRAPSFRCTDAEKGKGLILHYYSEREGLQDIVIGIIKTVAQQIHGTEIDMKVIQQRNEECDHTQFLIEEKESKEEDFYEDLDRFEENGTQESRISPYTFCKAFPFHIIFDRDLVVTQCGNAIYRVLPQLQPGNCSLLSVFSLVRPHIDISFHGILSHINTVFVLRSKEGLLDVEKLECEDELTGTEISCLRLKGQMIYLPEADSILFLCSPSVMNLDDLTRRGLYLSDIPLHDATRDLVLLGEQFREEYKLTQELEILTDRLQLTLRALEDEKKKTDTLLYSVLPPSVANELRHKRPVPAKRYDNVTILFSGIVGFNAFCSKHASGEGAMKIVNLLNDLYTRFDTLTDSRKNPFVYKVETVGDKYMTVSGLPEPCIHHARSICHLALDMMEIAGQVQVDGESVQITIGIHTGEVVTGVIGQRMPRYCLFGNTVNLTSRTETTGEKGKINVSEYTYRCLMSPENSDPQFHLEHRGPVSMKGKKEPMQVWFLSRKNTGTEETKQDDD
Experiment: Cell-Based sGC Functional Assay (CASA Assay), cGMP by HTRF in CHO-K1/sGC cells
Settings: CHO-K1, percent activation relative to maximum cGMP production of Compound A (= 100%), read-out: % Act.
measuredEndpoint: Emax (%)
Give the value in % but do not write % after it.

INSERT INTO assay_data (compound, reportedresult) VALUES
  ('CCCCc1nc(-c2ncc3c(n2)NC(=O)C3(C)c2ccc(F)cn2)cn2ccnc12 (stereo not shown) [Example 82B]', 63),
  ('Cc1cn2cc(-c3ncc4c(n3)NC(=O)C4(C)c3ccc(F)cn3)nc(CCCC(F)(F)F)c2n1 (stereo not shown) [Example 90B]', 191),
  ('CC1(c2ccc(F)cc2)C(=O)Nc2nc(-c3cn4ccnc4c(CCC(F)(F)C(F)(F)F)n3)nc(C#N)c21 (stereo not shown) [Example 85A]', 97),
  ('CC1(c2ccc(F)cc2)C(=O)Nc2nc(-c3cn4ccnc4c(CC4CCC4)n3)ncc21 (stereo not shown) [Example 63A]', 107),
  ('O=C1Nc2nc(-c3cn4ccnc4c(CCCC(F)(F)F)n3)ncc2C1(c1ccc(OC(F)(F)F)cc1)C1CC1 (stereo not shown) [Example 52A]', 155);

Reported Emax, compound CCCCc1nc(-c2ncc3c(n2)NC(=O)C3(C)c2ccc(F)cn2)cn2cc(C)nc12 (stereo not shown) [Example 91B] : ____
117
